# assay text: Luminescence activity of ZZ-fused KAZ mutants in crude enzyme solutions
# Type: biochemical
# condition description: ZZ-fused, crude enzyme solution; coelenterazine (Table 9)
test readout: Luminescence activity, fold higher than wild KAZ

molecule="KAZ-A54I-Y138I: KAZ mutant with two amino acid substitutions A54I and Y138I, SEQ ID NO: 14 (protein) FTLADFVGDWQQTAGYNQDQVLEQGGLSSLFQALGVSVTPIQKVVLSGENGLKIDIHVIIPYEGLSGFQMGLIEMIFKVVYPVDDHHFKIILHYGTLVIDGVTPNMIDYFGRPYPGIAVFDGKQITVTGTLWNGNKIIDERLINPDGSLLFRVTINGVTGWRLCENILA" value_measured="23 fold"
molecule="KAZ-V44I-A54I-Y138I: KAZ mutant with three amino acid substitutions V44I, A54I and Y138I, SEQ ID NO: 16 (protein) FTLADFVGDWQQTAGYNQDQVLEQGGLSSLFQALGVSVTPIQKIVLSGENGLKIDIHVIIPYEGLSGFQMGLIEMIFKVVYPVDDHHFKIILHYGTLVIDGVTPNMIDYFGRPYPGIAVFDGKQITVTGTLWNGNKIIDERLINPDGSLLFRVTINGVTGWRLCENILA" value_measured="67 fold"
molecule="KAZ-V44I-Y138I: KAZ mutant with two amino acid substitutions V44I and Y138I, SEQ ID NO: 12 (protein) FTLADFVGDWQQTAGYNQDQVLEQGGLSSLFQALGVSVTPIQKIVLSGENGLKADIHVIIPYEGLSGFQMGLIEMIFKVVYPVDDHHFKIILHYGTLVIDGVTPNMIDYFGRPYPGIAVFDGKQITVTGTLWNGNKIIDERLINPDGSLLFRVTINGVTGWRLCENILA" value_measured="17 fold"
molecule="KAZ-V44I-A54I: KAZ mutant with two amino acid substitutions V44I and A54I, SEQ ID NO: 10 (protein) FTLADFVGDWQQTAGYNQDQVLEQGGLSSLFQALGVSVTPIQKIVLSGENGLKIDIHVIIPYEGLSGFQMGLIEMIFKVVYPVDDHHFKIILHYGTLVIDGVTPNMIDYFGRPYPGIAVFDGKQITVTGTLWNGNKIYDERLINPDGSLLFRVTINGVTGWRLCENILA" value_measured="15 fold"

Origin of measurements: patent US10907134B2
